Reported values of TGI for individual entries
Test system: M14 melanoma
method.summary: NCI tumour cell line growth inhibition, 48 h
endpoint.name: TGI (µM)

compound=Cc1cc(O)c(/C=N/C(=O)NN)c(=O)o1 system_name="M14 melanoma" readout_relation=> recorded_result=100
compound=C/C(=N\Nc1ncnc2ccccc12)c1ccccn1 system_name="M14 melanoma" readout_relation== recorded_result=33
compound=O=C(Nc1ccccc1)OCc1nc2c([nH]1)C(=O)C=CC2=O system_name="M14 melanoma" readout_relation== recorded_result=29.8
compound="O=C(NN1C(=O)C(Cl)C1c1ccc([N+](=O)[O-])cc1)c1ccccc1O (centres undefined)" system_name="M14 melanoma" readout_relation=> recorded_result=100
compound=O=C(Nn1c2c(sc1=NC1CC1)C(=O)c1ccccc1C2=O)c1cc2ccc1CCc1ccc(cc1)CC2 system_name="M14 melanoma" readout_relation== recorded_result=2.83
compound=CC(=N\N=C\c1ccccn1)/C(C)=N/N=C/c1ccccn1 system_name="M14 melanoma" readout_relation=> recorded_result=100
compound="CC(Nc1cc(=O)n(C)c(=O)[nH]1)c1ccccc1 (centres undefined)" system_name="M14 melanoma" readout_relation=> recorded_result=100
compound=CN(c1ccccc1Cl)S(=O)(=O)c1ccccc1 system_name="M14 melanoma" readout_relation=> recorded_result=100
compound=CCN(CC)CCNC(=O)c1cc2cc(NC(=O)c3cc4cc(NC(=O)c5cc6cc([N+](=O)[O-])ccc6[nH]5)ccc4[nH]3)ccc2[nH]1 system_name="M14 melanoma" readout_relation=> recorded_result=100
compound="CC(C)c1ccc(O)c(O)c(=O)c1 (tested in a mixture with another compound)" system_name="M14 melanoma" readout_relation== recorded_result=15.5
compound=CCc1c(-c2coc(CC/C(C)=C/c3ccccc3)n2)oc(OC)c(C)c1=O system_name="M14 melanoma" readout_relation=> recorded_result=61.4
compound=COc1cccc2cc(N(C)c3nc(C)nc4ccsc34)ccc12 system_name="M14 melanoma" readout_relation== recorded_result=12.6
compound=Cc1cc(S(=O)(=O)Nc2nc3ccsc3c(=O)n2Cc2ccccc2)c(S)cc1Cl system_name="M14 melanoma" readout_relation== recorded_result=49.6
compound=Cn1c2cc(Cl)ccc2c2ccc3c(c21)C(=O)C=CC3=O system_name="M14 melanoma" readout_relation=> recorded_result=64
compound=Nc1ccc(S(=O)(=O)c2ccc(N=[N+]([O-])c3ccc(S(=O)(=O)c4ccc(N)cc4)cc3)cc2)cc1 system_name="M14 melanoma" readout_relation=> recorded_result=100
compound="COc1cc(C2c3cc4c(cc3OC(N3CCOCC3)C2C)OCO4)cc(OC)c1OC (centres undefined)" system_name="M14 melanoma" readout_relation== recorded_result=44.1
compound="CN(C(=O)C1CC1)C1C2CN3CCC(O2)C13 (centres undefined)" system_name="M14 melanoma" readout_relation=> recorded_result=100
compound="COc1ccc(-c2c(C(C)=O)c(-c3ccccc3)n(C3OC(COC(C)=O)C(OC(C)=O)C(OC(C)=O)C3OC(C)=O)c(=S)c2C#N)cc1O (centres undefined)" system_name="M14 melanoma" readout_relation=> recorded_result=100
compound=Cc1ccc(C(=O)/C=C/N2CCN(c3cccc(C(F)(F)F)c3)CC2)cc1 system_name="M14 melanoma" readout_relation== recorded_result=30.5
compound=CN(C)Cc1cc(C(=O)/C=C/c2c(F)cccc2Cl)cc(CN(C)C)c1O system_name="M14 melanoma" readout_relation== recorded_result=30
compound=Cc1sc2c(c1C)C(c1ccc(Cl)cc1)=N[C@@H](CC(=O)Nc1ccc(O)cc1)c1nnc(C)n1-2 system_name="M14 melanoma" readout_relation== recorded_result=20.2
compound=C=C1C(=O)O[C@H]2[C@H]1CC/C(COC(=O)NCc1cccc(OC)c1)=C\CC[C@@]1(C)O[C@@H]21 system_name="M14 melanoma" readout_relation== recorded_result=5.16
compound=CN(/C(=N\O)c1ccccc1)c1ccccc1 system_name="M14 melanoma" readout_relation== recorded_result=57.5
compound=Cc1cc2nc(NS(=O)(=O)c3cc(C)c(Cl)cc3S)[nH]c2cc1C system_name="M14 melanoma" readout_relation=> recorded_result=100
compound="CC1CCC(C#N)(NOC2=NCCN2)CC1 (centres undefined)" system_name="M14 melanoma" readout_relation=> recorded_result=100
compound=CCOc1ccc(C(c2c(O)c3ccccc3oc2=O)c2c(O)c3ccccc3oc2=O)cc1 system_name="M14 melanoma" readout_relation=> recorded_result=100
compound=COc1ccc(Cn2cc3c(c2-c2ccccc2)CCc2cncnc2-3)cc1 system_name="M14 melanoma" readout_relation== recorded_result=18.2
compound="COc1cc(C(c2cc(OC)c(OC)c(OC)c2)N2C(=O)CCC2C(=O)O)cc(OC)c1OC (centres undefined)" system_name="M14 melanoma" readout_relation=> recorded_result=100
compound=CC(=O)O[C@H]1CC[C@H]2[C@@H]3CC[C@H]4Nc5c(cnn5S(C)(=O)=O)C[C@]4(C)[C@H]3CC[C@]12C system_name="M14 melanoma" readout_relation=> recorded_result=100
compound=O=C1C(Nc2cccc(O)c2)=C(Sc2ccc(Cl)cc2)C(=O)N1Cc1ccccc1 system_name="M14 melanoma" readout_relation== recorded_result=38.5
compound=CC(=O)NNc1nc(C)c(C(/C=C/c2ccc(Cl)cc2)=N/NC(=S)NN)s1 system_name="M14 melanoma" readout_relation=> recorded_result=100
compound="CC1(C)OCC(C2OC(=O)C(OCc3ccccc3)=C2OCc2ccccc2)O1 (centres undefined)" system_name="M14 melanoma" readout_relation=> recorded_result=100
compound=CCCCCC/C=C\CCCCCCCCCc1c(O)c(OC)cc(O)c1CN(C)C system_name="M14 melanoma" readout_relation== recorded_result=27.8
compound=CCCCc1oc2ccccc2c1C(=O)c1cc(I)c(OCCN(CC)CC)c(I)c1 system_name="M14 melanoma" readout_relation== recorded_result=4.78
compound="CC(C(O)c1ccccc1)[N+](=O)[O-] (centres undefined)" system_name="M14 melanoma" readout_relation== recorded_result=72
compound=CC(=O)[CH-]C(=O)c1ccccc1.CC(=O)[CH-]C(=O)c1ccccc1.CC[O-].O=C1C=C([O-])C(=O)c2ccccc21.[Ti+4] system_name="M14 melanoma" readout_relation=> recorded_result=100
compound="O/N=C1/C(=C/c2ccc(Cl)cc2)CCCC1C(NO)c1ccc(Cl)cc1 (centres undefined)" system_name="M14 melanoma" readout_relation== recorded_result=33.8
compound=C/C(CC(=O)Nc1ccc(NC(=O)/C(C)=N/NS(=O)(=O)c2ccc(C)cc2)cc1)=N\NS(=O)(=O)c1ccc(C)cc1 system_name="M14 melanoma" readout_relation=> recorded_result=100
compound=O=C1c2c(O)cccc2C(C(=O)CCCC(=O)C2c3cccc(O)c3C(=O)c3c(O)cccc32)c2cccc(O)c21 system_name="M14 melanoma" readout_relation== recorded_result=2.48
